# measurementTarget: rat mGlu2 receptor (Rattus norvegicus (Rat))
# Sequence (P31421 19-872): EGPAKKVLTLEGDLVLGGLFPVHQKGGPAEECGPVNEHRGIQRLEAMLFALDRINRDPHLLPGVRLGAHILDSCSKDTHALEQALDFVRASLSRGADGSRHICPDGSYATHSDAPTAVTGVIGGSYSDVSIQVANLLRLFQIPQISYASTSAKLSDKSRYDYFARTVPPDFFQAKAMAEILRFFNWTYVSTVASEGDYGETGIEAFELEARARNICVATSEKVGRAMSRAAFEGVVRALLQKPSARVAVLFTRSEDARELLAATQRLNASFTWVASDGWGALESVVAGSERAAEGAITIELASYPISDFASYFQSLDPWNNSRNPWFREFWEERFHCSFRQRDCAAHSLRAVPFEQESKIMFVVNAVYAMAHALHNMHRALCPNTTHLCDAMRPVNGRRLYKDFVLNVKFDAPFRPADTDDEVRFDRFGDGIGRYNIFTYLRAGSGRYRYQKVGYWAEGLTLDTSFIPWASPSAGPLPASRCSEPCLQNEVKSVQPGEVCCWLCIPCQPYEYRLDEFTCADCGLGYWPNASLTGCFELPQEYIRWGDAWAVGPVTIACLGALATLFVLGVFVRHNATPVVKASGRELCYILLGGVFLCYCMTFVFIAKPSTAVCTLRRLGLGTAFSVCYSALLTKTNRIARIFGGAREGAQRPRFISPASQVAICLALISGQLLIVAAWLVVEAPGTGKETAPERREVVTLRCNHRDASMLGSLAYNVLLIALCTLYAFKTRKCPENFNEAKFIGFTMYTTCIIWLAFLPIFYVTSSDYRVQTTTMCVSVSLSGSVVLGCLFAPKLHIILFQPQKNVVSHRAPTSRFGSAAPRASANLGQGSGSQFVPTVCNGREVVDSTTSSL
# experimentNotes: mGlu2 in vitro GIRK thallium flux assay
# Assay type: cell-based
# appliedConditions: read-out: mGlu2 EC50 (μM) (60 min); NAM; 60 min compound incubation; EC80 glutamate; HEK-293 GIRK cells
Item-by-item account of EC50

In [3]: df
Out[3]:
                                   molecule  experimentalresult
0  Cc1cc2c(cc1C(F)(F)F)NC(=O)CC(c1cccc(C#Cc3ccccc3)c1)=N2             > 10 µM

query: GET /values?readout=EC50&item= CNC(=O)c1cc(-c2cccc(-c3nc(-c4ccc(C(F)(F)F)nc4)cc(C(F)(F)F)n3)c2)ccc1Cl
result: > 10 µM

query: Which value of EC50 has been reported for Cc1cc2c(cc1C(F)(F)F)NC(=O)CC(c1cccc(Nc3ccccn3)c1)=N2 in the records?
result: > 10 µM
